# system tested: eIF4A1 (UniProt P60842)
# Sequence (P60842 whole entry): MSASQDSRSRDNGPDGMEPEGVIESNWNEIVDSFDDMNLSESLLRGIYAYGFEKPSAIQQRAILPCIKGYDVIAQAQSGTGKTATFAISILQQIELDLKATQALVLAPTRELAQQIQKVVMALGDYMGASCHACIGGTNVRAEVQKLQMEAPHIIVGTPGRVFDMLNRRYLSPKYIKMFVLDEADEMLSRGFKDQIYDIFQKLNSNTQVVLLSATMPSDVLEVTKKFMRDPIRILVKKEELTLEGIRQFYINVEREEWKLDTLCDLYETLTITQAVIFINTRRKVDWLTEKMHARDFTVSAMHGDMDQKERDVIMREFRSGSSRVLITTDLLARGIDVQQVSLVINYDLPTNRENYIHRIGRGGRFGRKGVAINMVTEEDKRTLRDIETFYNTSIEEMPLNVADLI
# test protocol: fluorescence anisotropy
# condition details: 20 mM Hepes/KOH pH 7.5, 100 (mM) KCl, 1 mM MgCl2, 1 mM AMP-PNP, 1 mM TCEP, 0.1% DMSO, +/-50 uM silvestrol (10 uM in Fig 4a legend), 60 min, 25 C; numeric Kd of …
quantity name: Kd (mM)
Lab book: enter the figure in mM, no units written.

Fill blank: measured Kd of the sequence AGAGAGAGAGAGAGAGAGAG [(AG)10 ssRNA] is ____.
0.0033
